Assay: qHTS assay to identify small molecule agonists of H2AX - cell viability counter screen (AID 1224847); also: nearly all actives have a fitted effect of over 30% in size
Details: CHO-K1 viability, CellTiter-Glo luminescence, 3 h; series mostly up to 154 µM
Inconclusive results are not listed. Activity calls are given as the source filed them. Calls follow the shape of the full dose curve.
Allowed answers: T for active, F for inactive

[[record]]
sample_smiles = "O=C(/C=C/c1ccccc1)OCCc1ccccc1"
classification = "F"

[[record]]
sample_smiles = "CC[C@]1(O)C[C@H]2CN(CCc3c([nH]c4ccccc34)[C@@](C(=O)OC)(c3cc4c(cc3OC)N(C=O)[C@H]3[C@@](O)(C(=O)OC)[C@H](OC(C)=O)[C@]5(CC)C=CCN6CC[C@]43[C@@H]65)C2)C1"
classification = "F"

[[record]]
sample_smiles = "CNC(=O)c1cnn(-c2nc(N)c3ncn([C@@H]4O[C@H](CO)[C@@H](O)[C@H]4O)c3n2)c1"
classification = "F"


[in] # lookup: test call for Cc1cc(O)c(C)c(C)c1O
[out] F

[in] I would be grateful if you could indicate the recorded call for CCOc1ccccc1O[C@H](c1ccccc1)[C@H]1CNCCO1 .
[out] F

[in] // param item: COC(=O)[C@H]1[C@H]2C[C@@H]3c4[nH]c5cc(OC)ccc5c4CCN3C[C@H]2C[C@@H](OC(=O)/C=C/c2ccc(O)c(OC)c2)[C@@H]1OC ; yields the recorded call
[out] F

[in] Tell me the assay call for CC(C)C[C@H](NC(=O)[C@H](CCc1ccccc1)NC(=O)CN1CCOCC1)C(=O)N[C@@H](Cc1ccccc1)C(=O)N[C@@H](CC(C)C)C(=O)[C@@]1(C)CO1 please.
[out] F

[in] // param item: C=C1C[C@@]23CC[C@H]4[C@@](C)(CCC[C@@]4(C)C(=O)O[C@@H]4O[C@H](CO)[C@@H](O)[C@H](O)[C@H]4O)[C@@H]2CC[C@]1(O[C@@H]1O[C@H](CO)[C@@H](O)[C@H](O[C@@H]2O[C@H](CO)[C@@H](O)[C@H](O)[C@H]2O)[C@H]1O[C@@H]1O[C@H](CO)[C@@H](O)[C@H](O)[C@H]1O)C3 ; yields the recorded call
[out] F

[in] Hello, I am checking results. What call was entered for CCOC(=O)c1ccccc1C(=C1C=C(Br)C(=O)C(Br)=C1)c1cc(Br)c(O)c(Br)c1 ?
[out] F

[in] Can you look up the reported call for O=C1c2ccccc2C(=O)N1CCc1noc(-c2ccc(CN3CCCCCC3)s2)n1 for me?
[out] T

[in] Recorded test outcome, item Cc1cccc(O)c1N
[out] F

[in] Would you mind telling me which call this test gave CCCCCCC(C)(C)C(=O)O ?
[out] F
